- Tested on: Vero cells
- measurement-notes: Cytotoxicity, Vero cells, Alamar Blue
- Format: cell-based
- conditions: 25 μM, 20 hours
- Experimental: An Assay Method for Cytotoxicity The Vero cells were sown on a 96-well plate and then cultured overnight. The culture supernatant was removed, and 200 μl of 2% FBS-DMEM comprising 25 μM of the test compound was added. In this case, a substance to which 2% FBS-DMEM not comprising any test compound had been added was determined as a control. These cells were incubated in the presence of 5% CO2 at 37° C. for 20 hours. […]
Consider the following compounds; for each one, report its Cell viability (% of control).
The answer is to be given in %; state only the numeric part.

Quick one: Cell viability (% of control) for Cc1c(NC(=O)OC(C)(C)C)ccc2nc(N3Cc4ccccc4C[C@H]3C(=O)N(C)CCc3ccncc3)oc(=O)c12 ? 45.5

Quick one: Cell viability (% of control) for Cc1c(NC(=O)c2cccc(CCl)c2)ccc2nc(NC(C)(C)C(=O)N(C)CCc3ccccn3)oc(=O)c12 ? 13.6

Quick one: Cell viability (% of control) for Cc1c(NC(=O)OC(C)(C)C)ccc2nc(N[C@H](C(=O)N(C)CCc3ccncc3)C(C)(C)C)oc(=O)c12 ? 64.5

###

- System: HSV-1
- measurement-notes: Antiviral activity, HSV-1 in Vero cells, plaque method
- Format: cell-based
- conditions: Human alphaherpesvirus 1, 20 hours, 90% inhibition of plaque formation
quantity-name: EC90

Observed EC90 on HSV-1 for Cc1c(NC(=O)c2ccc([N+](=O)[O-])o2)ccc2nc(NC(C)(C)C(=O)N(C)CCc3ccccn3)oc(=O)c12 [Compound No.177] , please. > 12.5 µM

Observed EC90 on HSV-1 for COCC(=O)Nc1ccc2nc(NC(C)(C)C(=O)N(C)CCc3ccccn3)oc(=O)c2c1C [Compound No.137] , please. > 12.5 µM

Observed EC90 on HSV-1 for Cc1c(NC(=O)CCNC(=O)c2ccc(C(F)(F)F)cc2)ccc2nc(N[C@@H](C)C(=O)N(C)CCc3ccccn3)oc(=O)c12 [Compound No.216] , please. > 12.5 µM

Observed EC90 on HSV-1 for Cc1c(NC(=O)OC(C)(C)C)ccc2nc(N[C@@H](CC3CCCCC3)C(=O)N(C)Cc3ccccn3)oc(=O)c12 [Compound No.63] , please. < 3.2 µM

###

- Tested on: Vero cells
- measurement-notes: Cytotoxicity, Vero cells, Alamar Blue
- Format: cell-based
- conditions: 25 μM, 20 hours
Binarize Cell viability (% of control) at 60%; below is true, at or above is false.

Strictly below 60% in Cell viability (% of control)? Cc1c(NC(=O)c2ccccc2OC(F)(F)F)ccc2nc(NC(C)(C)C(=O)N(C)CCc3ccccn3)oc(=O)c12 [Compound No.182] false

Strictly below 60% in Cell viability (% of control)? Cc1c(NC(=O)c2ccccc2)ccc2nc(NC(C)(C)C(=O)N(C)CCc3ccccn3)oc(=O)c12 [Compound No.138] false

Strictly below 60% in Cell viability (% of control)? Cc1c(NC(=O)OC(C)(C)C)ccc2nc(N[C@@H](CC3CCCCC3)C(=O)NCCc3ccccn3)oc(=O)c12 [Compound No.29] false

Strictly below 60% in Cell viability (% of control)? Cc1c(NC(=O)OC(C)(C)C)ccc2nc(N[C@@H](C)C(=O)N(C)CCc3cccnc3)oc(=O)c12 [Compound No.65] false

Strictly below 60% in Cell viability (% of control)? Cc1c(NC(=O)c2ccc(C(F)(F)F)cc2)ccc2nc(NC(C)(C)C(=O)N(C)CCc3ccccn3)oc(=O)c12 [Compound No.146] true

Strictly below 60% in Cell viability (% of control)? Cc1c(NC(=O)OC(C)(C)C)ccc2nc(N[C@@H](Cc3ccccc3)C(=O)NCc3ccncc3)oc(=O)c12 [Compound No.31] false

Strictly below 60% in Cell viability (% of control)? Cc1c(NC(=O)OC(C)(C)C)ccc2nc(NC(C)(C)C(=O)NCCc3ccccn3)oc(=O)c12 [Compound No.35] false

Strictly below 60% in Cell viability (% of control)? Cc1c(NC(=O)c2cccc(C(Cl)Cl)c2)ccc2nc(NC(C)(C)C(=O)N(C)CCc3ccccn3)oc(=O)c12 [Compound No.183] false

Strictly below 60% in Cell viability (% of control)? Cc1c(NC(=O)OC(C)(C)C)ccc2nc(N(C)[C@@H](Cc3ccccc3)C(=O)NCc3ccncc3)oc(=O)c12 [Compound No.80] true

Strictly below 60% in Cell viability (% of control)? Cc1c(NC(=O)c2ccc([N+](=O)[O-])o2)ccc2nc(NC(C)(C)C(=O)N(C)CCc3ccccn3)oc(=O)c12 [Compound No.177] true

Strictly below 60% in Cell viability (% of control)? Cc1c(NC(=O)OC(C)(C)C)ccc2nc(N(C)[C@@H](Cc3ccccc3)C(=O)N(C)CCc3ccccn3)oc(=O)c12 [Compound No.83] false

Strictly below 60% in Cell viability (% of control)? Cc1c(NC(=O)OC(C)(C)C)ccc2nc(N3Cc4ccccc4C[C@H]3C(=O)NCc3ccncc3)oc(=O)c12 [Compound No.96] true

###

Consider the following compounds; for each one, report its EC90.
- Test system: HSV-1
- measurement-notes: Antiviral activity, HSV-1 in Vero cells, plaque method
- Assay type: cell-based
- conditions: Human alphaherpesvirus 1, 20 hours, 90% inhibition of plaque formation
The answer is to be given in µM; state only the numeric part.

Quick one: EC90 for Cc1c(NC(=O)OC(C)(C)C)ccc2nc(N[C@@H](CC(C)C)C(=O)N(C)CCc3ccccn3)oc(=O)c12 ? 4.9

Quick one: EC90 for Cc1c(NC(=O)OC(C)(C)C)ccc2nc(N3C[C@H](OCc4ccccc4)C[C@H]3C(=O)NCCc3ccccn3)oc(=O)c12 ? 10.7

Quick one: EC90 for CCc1ccc(C(=O)Nc2ccc3nc(NC(C)(C)C(=O)N(C)CCc4ccccn4)oc(=O)c3c2C)cc1 ? 4.5

Quick one: EC90 for Cc1c(NC(=O)c2cccc3ccccc23)ccc2nc(NC(C)(C)C(=O)N(C)CCc3ccccn3)oc(=O)c12 ? 12.4

Quick one: EC90 for Cc1c(NC(=O)OC(C)(C)C)ccc2nc(N(C)[C@@H](Cc3ccccc3)C(=O)NCc3ccccn3)oc(=O)c12 ? 9

Quick one: EC90 for COc1ccc(C(=O)Nc2ccc3nc(NC(C)(C)C(=O)N(C)CCc4ccccn4)oc(=O)c3c2C)cc1 ? 10.7

Quick one: EC90 for Cc1c(NC(=O)OC(C)(C)C)ccc2nc(N3Cc4ccccc4C[C@H]3C(=O)N(C)Cc3ccccn3)oc(=O)c12 ? 5.8

Quick one: EC90 for CCCCCCCC(=O)Nc1ccc2nc(NC(C)(C)C(=O)N(C)CCc3ccccn3)oc(=O)c2c1C ? 11.5

Quick one: EC90 for Cc1ccc(C(=O)Nc2ccc3nc(NC(C)(C)C(=O)N(C)CCc4ccccn4)oc(=O)c3c2C)cc1 ? 8.3

Quick one: EC90 for Cc1c(NC(=O)OC(C)(C)C)ccc2nc(N3Cc4ccccc4C[C@H]3C(=O)N(C)CCc3ccncc3)oc(=O)c12 ? 8.4

Quick one: EC90 for Cc1c(NC(=O)OC(C)(C)C)ccc2nc(N(C)[C@@H](Cc3ccccc3)C(=O)NCc3ccncc3)oc(=O)c12 ? 5.9

Quick one: EC90 for Cc1c(NC(=O)OC(C)(C)C)ccc2nc(N[C@@H](Cc3ccccc3)C(=O)NCc3ccccn3)oc(=O)c12 ? 5.9

Quick one: EC90 for Cc1c(NC(=O)c2cccc(F)c2)ccc2nc(NC(C)(C)C(=O)N(C)CCc3ccccn3)oc(=O)c12 ? 10.3

###

- test-system: HSV-1 protease (Human herpesvirus 1)
- Sequence (P10210 1-247): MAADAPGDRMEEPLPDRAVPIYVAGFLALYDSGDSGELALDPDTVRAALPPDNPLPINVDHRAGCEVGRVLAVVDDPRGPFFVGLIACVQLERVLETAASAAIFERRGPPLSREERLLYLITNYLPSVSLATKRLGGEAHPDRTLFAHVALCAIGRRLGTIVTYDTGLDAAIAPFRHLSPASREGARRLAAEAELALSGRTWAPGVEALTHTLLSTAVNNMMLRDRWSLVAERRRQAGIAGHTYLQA
Binarize IC50 at 2 µM; below is 1.0, at or above is 0.0.

Strictly below 2 µM in IC50? Cc1c(NC(=O)CCCNC(=O)c2cccs2)ccc2nc(N[C@@H](C)C(=O)N(C)CCc3ccccn3)oc(=O)c12 [Compound No.218] 1.0

Strictly below 2 µM in IC50? Cc1c(NC(=O)c2ccccc2Cl)ccc2nc(NC(C)(C)C(=O)N(C)CCc3ccccn3)oc(=O)c12 [compound 151] 1.0

Strictly below 2 µM in IC50? Cc1c(NC(=O)OC(C)(C)C)ccc2nc(NC3(C(=O)N(C)CCc4ccccn4)CCCC3)oc(=O)c12 [Compound No.123] 1.0

Strictly below 2 µM in IC50? Cc1c(NC(=O)C(C)(C)C)ccc2nc(NC(C)(C)C(=O)N(C)CCc3ccccn3)oc(=O)c12 [Compound No.136] 0.0

Strictly below 2 µM in IC50? Cc1c(NC(=O)OC(C)(C)C)ccc2nc(N3CCC[C@H]3C(=O)NCc3cccnc3)oc(=O)c12 [Compound No.87] 1.0

Strictly below 2 µM in IC50? Cc1c(NC(=O)OC(C)(C)C)ccc2nc(N(C)[C@@H](C)C(=O)N(C)CCc3ccccn3)oc(=O)c12 [Compound No.76] 0.0

Strictly below 2 µM in IC50? CCCCc1ccc(C(=O)NCCCC(=O)Nc2ccc3nc(NC(C)(C)C(=O)N(C)CCc4ccccn4)oc(=O)c3c2C)cc1 [Compound No.214] 1.0

Strictly below 2 µM in IC50? Cc1c(NC(=O)c2ccc(OC(F)(F)F)cc2)ccc2nc(NC(C)(C)C(=O)N(C)CCc3ccccn3)oc(=O)c12 [Compound No.173] 1.0

Strictly below 2 µM in IC50? Cc1c(NC(=O)CCNC(=O)OCc2ccccc2)ccc2nc(NC(C)(C)C(=O)N(C)CCc3ccccn3)oc(=O)c12 [Compound No.202] 1.0

Strictly below 2 µM in IC50? Cc1c(NC(=O)c2ccc(C(C)(C)C)cc2)ccc2nc(NC(C)(C)C(=O)N(C)CCc3ccccn3)oc(=O)c12 [Compound No.168] 1.0

Strictly below 2 µM in IC50? Cc1c(NC(=O)CCNC(=O)c2cccs2)ccc2nc(NC(C)(C)C(=O)N(C)CCc3ccccn3)oc(=O)c12 [Compound No.209] 1.0

Strictly below 2 µM in IC50? Cc1c(NC(=O)OC(C)(C)C)ccc2nc(N[C@@H](C)C(=O)N(C)CCc3ccccn3)oc(=O)c12 [Compound No.43] 1.0

Strictly below 2 µM in IC50? Cc1c(NC(=O)OC(C)(C)C)ccc2nc(NC3(C(=O)N(C)CCc4ccncc4)CC3)oc(=O)c12 [Compound No.127] 1.0

Strictly below 2 µM in IC50? Cc1c(NC(=O)c2ccccc2COC(=O)c2ccccc2)ccc2nc(NC(C)(C)C(=O)N(C)CCc3ccccn3)oc(=O)c12 [Compound No.186] 1.0

Strictly below 2 µM in IC50? Cc1c(NC(=O)C2CCCC2)ccc2nc(NC(C)(C)C(=O)N(C)CCc3ccccn3)oc(=O)c12 [Compound No.188] 1.0

Strictly below 2 µM in IC50? Cc1c(NC(=O)OC(C)(C)C)ccc2nc(N3Cc4ccccc4C[C@H]3C(=O)N(C)CCc3ccccn3)oc(=O)c12 [Compound No.99] 0.0

Strictly below 2 µM in IC50? Cc1c(NC(=O)c2cccc(C(F)(F)F)c2)ccc2nc(NC(C)(C)C(=O)N(C)CCc3ccccn3)oc(=O)c12 [Compound No.145] 1.0

Strictly below 2 µM in IC50? Cc1c(NC(=O)OC(C)(C)C)ccc2nc(N[C@H](C(=O)N(C)CCc3cccnc3)C(C)(C)C)oc(=O)c12 [Compound No.66] 0.0

Strictly below 2 µM in IC50? Cc1c(NC(=O)c2ccccc2OC(F)(F)F)ccc2nc(NC(C)(C)C(=O)N(C)CCc3ccccn3)oc(=O)c12 [Compound No.182] 0.0

Strictly below 2 µM in IC50? Cc1c(NC(=O)c2ccccc2F)ccc2nc(NC(C)(C)C(=O)N(C)CCc3ccccn3)oc(=O)c12 [Compound No.147] 1.0

Strictly below 2 µM in IC50? Cc1c(NC(=O)C2CCC2)ccc2nc(NC(C)(C)C(=O)N(C)CCc3ccccn3)oc(=O)c12 [Compound No.198] 0.0
